The measurements presented in this section are drawn from paper PMC8230051.

Listed here are molecules together with their documented EC50.
target: UniProt D3Y1H8; assay: pGL4-SRE-luciferase reporter assay, MAPK/ERK signaling; type: cell-based; details: HEK293 cells expressing chicken HTR1B, stimulation of luciferase activity, 6 h, table values marked a roughly estimated, read-out: EC50, MAPK/ERK signaling pathway, HTR1B
Measured property: EC50

> print(dat)
                                   molecule  subject.of.test  measured.property    result
1  NCCc1c[nH]c2ccc(O)cc12 [5-HT, 5-hydroxytryptamine]   UniProt D3Y1H8               EC50  > 800 nM
2  CCCOc1ccc2[nH]cc(C3=CCNCC3)c2n1 [CP94253]   UniProt D3Y1H8               EC50  > 200 nM

* * *

biological target: chicken HTR1F (Gallus gallus); assay: pGL3-CRE-luciferase reporter assay, inhibition of forskolin-stimulated cAMP/PKA signaling; type: cell-based
pEC50: −log10 of the molar value.
Measured property: pEC50

> print(dat)
                                   molecule                subject.of.test  measured.property  quantitative.result
1  NCCc1c[nH]c2ccc(O)cc12 [5-HT, 5-hydroxytryptamine]  chicken HTR1F (Gallus gallus)              pEC50                 8.24

* * *

biological target: chicken HTR1F (Gallus gallus); experiment: pGL4-SRE-luciferase reporter assay, MAPK/ERK signaling; type: cell-based; conditions: HEK293 cells expressing chicken HTR1F; pGL4-SRE-luciferase; stimulation of luciferase activity; 6 h; table values marked a roughly estimated; read-out: EC50, MAPK/ERK signaling pathway, HTR1F
pEC50: −log10 of the molar value.
Measured property: pEC50

> print(dat)
                                   molecule                subject.of.test  result
1  CN(C)[C@@H]1CCc2[nH]c3ccc(NC(=O)c4ccc(F)cc4)cc3c2C1 [LY344864]  chicken HTR1F (Gallus gallus)  < 6.70

* * *

target: chicken HTR1E (Gallus gallus, UniProt E1BS44); assay: pGL3-CRE-luciferase reporter assay, inhibition of forskolin-stimulated cAMP/PKA signaling; type: cell-based
Sequence (E1BS44 1-371): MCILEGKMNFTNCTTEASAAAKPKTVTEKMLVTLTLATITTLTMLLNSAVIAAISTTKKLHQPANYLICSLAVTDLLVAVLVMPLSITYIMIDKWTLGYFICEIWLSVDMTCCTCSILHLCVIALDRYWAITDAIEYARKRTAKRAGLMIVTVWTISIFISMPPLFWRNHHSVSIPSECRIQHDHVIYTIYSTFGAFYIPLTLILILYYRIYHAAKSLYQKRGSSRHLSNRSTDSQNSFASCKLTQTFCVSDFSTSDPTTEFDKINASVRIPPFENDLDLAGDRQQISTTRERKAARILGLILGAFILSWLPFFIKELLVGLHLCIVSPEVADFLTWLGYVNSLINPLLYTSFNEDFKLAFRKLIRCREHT
pEC50: −log10 of the molar value.
Measured property: pEC50

> print(dat)
                                   compound  quantitative.result
1            CN1CCC(c2c[nH]c3ccc(O)cc23)CC1                 8.62
2  NCCc1c[nH]c2ccc(O)cc12 [5-HT, 5-hydroxytryptamine]                 8.03

* * *

molecular target: chicken HTR1B (Gallus gallus, UniProt D3Y1H8); assay: pGL3-CRE-luciferase reporter assay, inhibition of forskolin-stimulated cAMP/PKA signaling; format: cell-based; settings: HEK293 cells expressing chicken HTR1B, inhibition of forskolin (2 μM)-stimulated luciferase activity, 6 h, read-out: EC50, cAMP/PKA signaling pathway, HTR1B
Sequence (D3Y1H8 1-379): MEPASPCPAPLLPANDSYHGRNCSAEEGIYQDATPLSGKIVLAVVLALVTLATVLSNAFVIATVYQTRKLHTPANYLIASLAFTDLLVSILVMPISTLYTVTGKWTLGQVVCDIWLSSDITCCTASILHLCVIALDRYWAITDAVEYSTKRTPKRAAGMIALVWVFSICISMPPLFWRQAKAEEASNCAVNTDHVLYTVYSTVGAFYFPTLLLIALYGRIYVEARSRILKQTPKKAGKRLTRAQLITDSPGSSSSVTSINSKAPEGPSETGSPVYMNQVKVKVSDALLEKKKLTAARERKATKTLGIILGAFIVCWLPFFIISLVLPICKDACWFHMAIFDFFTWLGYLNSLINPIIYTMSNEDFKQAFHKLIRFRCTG
Measured property: EC50 (nM)

> print(dat)
                                   compound  measured.property  quantitative.result
1  NCCc1c[nH]c2ccc(O)cc12 [5-HT, 5-hydroxytryptamine]               EC50                    8
2  CCCOc1ccc2[nH]cc(C3=CCNCC3)c2n1 [CP94253]               EC50                    4

* * *

molecular target: chicken HTR1E (Gallus gallus); experiment: pGL4-SRE-luciferase reporter assay, MAPK/ERK signaling; type: cell-based
pEC50: −log10 of the molar value.
Listed here are molecules together with their documented pEC50.
Measured property: pEC50

> print(dat)
                                   molecule                subject.of.test  value.prefix  quantitative.result
1  NCCc1c[nH]c2ccc(O)cc12 [5-HT, 5-hydroxytryptamine]  chicken HTR1E (Gallus gallus)             <                 7.00
2  CN1CCC(c2c[nH]c3ccc(O)cc23)CC1 [BRL54443]  chicken HTR1E (Gallus gallus)             =                 7.54

* * *

Target: chicken HTR1F (Gallus gallus, UniProt A0A4P9IUX1)
Sequence (A0A4P9IUX1 entry or part of it): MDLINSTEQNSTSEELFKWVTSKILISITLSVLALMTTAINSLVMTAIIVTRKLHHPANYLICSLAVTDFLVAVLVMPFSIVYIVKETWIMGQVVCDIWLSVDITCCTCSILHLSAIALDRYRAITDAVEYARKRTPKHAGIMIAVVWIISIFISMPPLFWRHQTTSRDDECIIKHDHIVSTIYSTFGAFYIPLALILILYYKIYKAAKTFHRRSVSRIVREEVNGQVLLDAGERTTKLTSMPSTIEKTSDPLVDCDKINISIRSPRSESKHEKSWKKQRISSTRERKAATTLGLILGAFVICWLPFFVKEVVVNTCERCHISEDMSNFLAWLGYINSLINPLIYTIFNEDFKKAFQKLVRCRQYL
Assay: pGL3-CRE-luciferase reporter assay, inhibition of forskolin-stimulated cAMP/PKA signaling
Format: cell-based
Conditions: HEK293 cells expressing chicken HTR1F; pGL3-CRE-luciferase; inhibition of forskolin (2 μM)-stimulated luciferase activity; 6 h; read-out: EC50, cAMP/PKA signaling pathway, HTR1F
Method: According to our previously established methods, chicken HTR1B or HTR1E or HTR1F was transiently expressed in human embryonic kidney 293 (HEK293) cells and treated by 5-HT (10^−11 to 10^−7 M) or HTR1 agonists (CP94253, BRL54443 or LY344864, 10^−11 to 10^−5 M) for six hours. […] Luminescence was measured by a multimode microplate reader (TriStar LB941, EG&G Berthold, Bad Wildbad, Germany) according to the manufacturer’s instruction. […]
Measured property: EC50 (nM)

> print(dat)
                            smiles.notation  measured.property  uom  quantitative.result
1  CN(C)[C@@H]1CCc2[nH]c3ccc(NC(=O)c4ccc(F)cc4)cc3c2C1               EC50   nM                  1.8
